Would you kindly list Cmax for each of these molecules?
protocol: Evaluation of pharmacokinetics in mice
Format: in vivo, Kunming mice (KM mice)
conditionsUsed: male KM mice, 10 mg/kg intragastric, plasma
Experimental: 10 mg/kg compound 10, 14, 17, 20 were intragastrically administered to Healthy Kunming mice (KM mice), male, weighing 18-20 g. Compounds were dissolved in DMSO:PEG400:H2O 1:5:14. The volume of administration was 10 mL/kg. Before testing, the mice fasted for 12 h and drunk water ad libitum. Then, the mice were fed together at 2 h after administration. […] The concentration of drug was analyzed by LC-MS. […]
Answers are plain numbers, in ng/mL.

Recorded results for 3 molecules are shown here.
[2H]c1cc(C(=O)NC)c(F)c([2H])c1N1C(=S)N(c2cnc(C#N)c(C(F)(F)F)c2)C(=O)C12CCC2	3480
[2H]c1cc(C(=O)NC([2H])([2H])[2H])c(F)c([2H])c1N1C(=S)N(c2cnc(C#N)c(C(F)(F)F)c2)C(=O)C12CCC2	3940
CNC(=O)c1ccc(N2C(=S)N(c3cnc(C#N)c(C(F)(F)F)c3)C(=O)C23CCC3)cc1F [Compound 10, reference compound]	3320

# ---- query molecule ----
### Prompt What value of Cmax has been recorded for this entry: `[2H]C([2H])([2H])NC(=O)c1ccc(N2C(=S)N(c3cnc(C#N)c(C(F)(F)F)c3)C(=O)C23CCC3)cc1F`
### Response 4480
